# System: Plasmodium falciparum
# assay_procedure: Confirmatory screen in NF54 pLDH assay, in single point, at 2uM, 72h
# Assay type: functional, Erythrocyte
# applied_conditions: timepoint 72 hour
Among all 4,800 compounds or so, about 410 (8.5%) showed an effect of 50% or more. The sample as a whole holds a higher share of strong results than the screen did.
reported_metric: % Inhibition (%)
Please respond with the number in % and leave the unit unwritten.

Hello, I am looking for reported % Inhibition with Plasmodium falciparum for `Clc1ccccc1COc1ccc(CNC2CCCCC2)cc1` . Could you help?
7

Please provide the recorded % Inhibition for `O=C(O)CCCC(=O)NCCc1ccc(Cl)cc1` , tested on Plasmodium falciparum.
-19

Record lookup: for Plasmodium falciparum, what % Inhibition belongs to `Cn1c2cn(-c3ccc(F)cc3)c(-c3ccccc3)c2c(=O)n1-c1ccccc1` ?
6

Form: Entry = `Cc1cccc(C)c1Oc1ccccc1NC(=O)CCc1nnc[nH]1` | System = Plasmodium falciparum | % Inhibition = ____
4

Any idea what % Inhibition came out for `Oc1nc(N2CCOC3(CCCC3)C2)ncc1F` on Plasmodium falciparum?
53

Quick check: % Inhibition on Plasmodium falciparum, item `Fc1cccc(F)c1-n1c(CN2CCCCC2)csc1=S` ?
-5

Please state recorded % Inhibition (tested on Plasmodium falciparum) of `N#Cc1c(N2CCCCC2)ncc2c(=O)c3ccccc3[nH]c12`
8

Can you look up % Inhibition on Plasmodium falciparum for `CC(C)CC[C@@H](CCNCCN(C)C)c1ccc(Cl)cc1` ?
103

Lab note: need % Inhibition for `O=C1c2cc3ccccc3c(-c3ccccc3)c2C(=O)N1c1ccccc1` on Plasmodium falciparum, anyone have it?
-16

Please provide the recorded % Inhibition for `C[C@H](OC1CCCCCC1)C(=O)Nc1nc(C(N)=O)cs1` , tested on Plasmodium falciparum.
-11

// lookup % Inhibition | system=Plasmodium falciparum | key= `Cc1cccc2ncnc(N(C)[C@@H](C)Cc3ccc(O)cc3)c12`
84

Provide value of % Inhibition for this record tested with Plasmodium falciparum: `CCCc1nnc(N(Cn2nnc3ccccc32)C(=O)CN2CCOCC2)s1`
2

API: value(readout=% Inhibition, system=Plasmodium falciparum) for record `Cc1cnc(CC[C@H]2CCCN2C(=O)CCn2ccnc2)n1C`
7

Find the measured % Inhibition: item `O=C(NCCc1ccc(O)cc1)c1ccc2n[nH]c(=O)n2c1` , target or system Plasmodium falciparum.
-20

API: value(readout= % Inhibition, system= Plasmodium falciparum, query= CCC1CC(CC(=O)NS(=O)(=O)c2ccnn2C)CCO1 (centres undefined) )
0

Lab note: need % Inhibition with Plasmodium falciparum for entry `c1ccc(CCc2nnc3n2CCOC3)cc1` , please look it up.
3

Checklist item: % Inhibition tested on Plasmodium falciparum, entry `CCn1ncc(NC(=O)c2cc(-c3ccccc3)on2)c1C` , value?
-19

// map `CN1CCC[C@H](c2nnc3sc(-c4ccc(OCc5ccccc5)cc4)nn23)C1` to recorded % Inhibition (system: Plasmodium falciparum)
8

I'm curious: which % Inhibition was measured for `O=C(Nc1ccccc1)C1=NN(CC(=O)N2CCCCC2)C(=O)CC1` tested on Plasmodium falciparum?
-1

Give Plasmodium falciparum % Inhibition for O=C(NC1CC1C1CCCCC1)N1CCS(=O)(=O)CC1 (centres undefined)
-4

Find the measured % Inhibition: item `Cc1ccc(NC(=O)COC(=O)c2nccc3ccccc23)cc1` , target or system Plasmodium falciparum.
11

Enter reported % Inhibition observed with Plasmodium falciparum for `NC1(c2noc([C@@H]3CCCO3)n2)CCCCCC1`
13

Under Plasmodium falciparum: % Inhibition value of `Cc1ccc(-n2c(=O)c3sccc3n(CC(=O)NCc3ccc(F)cc3F)c2=O)cc1C` ?
-20

Value wanted: % Inhibition (Plasmodium falciparum) of entry `CC(C)CC[C@@H](CCNC1CCN(C)CC1)c1ccc(Cl)cc1`
83
